target: UniProt Q02763; experiment: radiometric filter-binding kinase assay, Kinase HotSpot; settings: compound 0.5 µM; ATP 10 µM
Sequence (Q02763 whole entry, looked up): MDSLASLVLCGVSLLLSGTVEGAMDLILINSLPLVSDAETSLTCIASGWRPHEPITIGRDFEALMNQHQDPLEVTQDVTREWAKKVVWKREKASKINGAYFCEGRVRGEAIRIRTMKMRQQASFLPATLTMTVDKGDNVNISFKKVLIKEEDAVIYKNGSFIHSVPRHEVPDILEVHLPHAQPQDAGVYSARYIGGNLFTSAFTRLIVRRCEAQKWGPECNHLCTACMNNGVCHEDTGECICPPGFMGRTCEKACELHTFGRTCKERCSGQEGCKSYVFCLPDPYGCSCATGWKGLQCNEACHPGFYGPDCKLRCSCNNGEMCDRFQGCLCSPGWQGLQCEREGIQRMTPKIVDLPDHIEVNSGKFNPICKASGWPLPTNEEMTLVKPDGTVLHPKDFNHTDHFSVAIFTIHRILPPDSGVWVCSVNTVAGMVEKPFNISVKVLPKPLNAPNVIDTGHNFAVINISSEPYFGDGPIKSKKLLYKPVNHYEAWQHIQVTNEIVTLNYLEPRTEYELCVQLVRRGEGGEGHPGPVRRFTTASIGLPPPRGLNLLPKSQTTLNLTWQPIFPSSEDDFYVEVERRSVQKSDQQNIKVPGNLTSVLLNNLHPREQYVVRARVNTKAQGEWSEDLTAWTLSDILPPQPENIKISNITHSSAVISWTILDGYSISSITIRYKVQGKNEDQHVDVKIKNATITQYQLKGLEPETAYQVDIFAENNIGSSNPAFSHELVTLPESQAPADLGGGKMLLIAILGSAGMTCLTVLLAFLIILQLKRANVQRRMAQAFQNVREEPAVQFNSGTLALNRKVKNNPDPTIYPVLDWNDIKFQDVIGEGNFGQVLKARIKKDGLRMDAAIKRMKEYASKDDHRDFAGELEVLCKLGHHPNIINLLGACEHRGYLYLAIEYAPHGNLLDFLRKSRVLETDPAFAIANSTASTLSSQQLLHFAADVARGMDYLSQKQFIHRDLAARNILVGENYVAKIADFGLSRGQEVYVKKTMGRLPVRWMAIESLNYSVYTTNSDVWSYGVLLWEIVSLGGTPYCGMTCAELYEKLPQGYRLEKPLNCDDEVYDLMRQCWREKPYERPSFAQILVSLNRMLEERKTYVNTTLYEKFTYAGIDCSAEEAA
# residual activity annotations
Please give a number only; it is taken to be in %.

Worked examples, 3 compounds total:
chemical.structure: O=C1C(Cl)=C(N2C(=O)CCC2=O)C(=O)c2ccccc21
result: 96.7
--
chemical.structure: COc1cc2ncnc(Nc3ccc(OCc4ccccc4)cc3)c2cc1OC
result: 97.9
--
chemical.structure: COc1cc2ncnc(Nc3ccc(Oc4ccccc4)cc3)c2cc1OC
result: 99.7

Proceeding to the next compound to report its residual activity.
query: Need residual activity of c1ccc2c(-c3ccncc3)c[nH]c2c1 , thanks.
result: 101

====

molecular target: MAP2K1 (human); experiment: radiometric filter-binding kinase assay, Kinase HotSpot; settings: compound 0.5 µM; ATP 10 µM
The reader will find reported residual activity values listed item by item below.
# include the unit after the value

Examples with answers:
chemical.structure: COc1cc2ncnc(Nc3ccc(OCc4ccccc4)cc3)c2cc1OC
study.target: MAP2K1 (human)
result: 94.7%

chemical.structure: Fc1ccc(-c2nc3n(c2-c2ccncc2)CCS3)cc1
study.target: MAP2K1 (human)
result: 93.6%

chemical.structure: N#Cc1c[nH]c2c[nH]/c(=N\Cc3cccnc3)cc2/c1=N\c1ccc(F)c(Cl)c1
study.target: MAP2K1 (human)
result: 86.2%

query: Look at this compound and give its reported residual activity. COc1ccc(Cl)cc1NC(=O)Nc1cc(C)nc2ccccc12
result: 101%

query: residual activity lookup needed for O=C1NC(=O)c2c1c1c3ccccc3[nH]c1n1cncc21 , thanks.
result: 102%

query: Find the recorded residual activity belonging to COc1ccc(S(=O)(=O)N(CCO)c2ccccc2CN(C)C/C=C/c2ccc(Cl)cc2)cc1 and report it.
result: 94.3%

====

biological target: CSNK1G3 (human); experiment: radiometric filter-binding kinase assay, Kinase HotSpot; conditions: compound 0.5 µM; ATP 10 µM
parameter.measured: residual activity (%)
Value expressed in %; do not type the unit.

Completed entries (count: 6):
chemical.structure: Cc1cncc2cccc(S(=O)(=O)N3CCCN(C(=O)CN)C[C@H]3C)c12
unit.annotation: %
result: 106
--
chemical.structure: CN(C)c1ccc(/C=C2\C(=O)Nc3ccccc32)cc1
unit.annotation: %
result: 101
--
chemical.structure: COc1ccc2c(c1)c(C1=C(c3c[nH]c4ccccc34)C(=O)NC1=O)cn2CCCN(C)C
unit.annotation: %
result: 77.8
--
chemical.structure: O=C1c2ccccc2-c2nc3nnnn3nc21
unit.annotation: %
result: 80.3
--
chemical.structure: COc1cc(Nc2c(C#N)cnc3cc(OCCCN4CCN(C)CC4)c(OC)cc23)c(Cl)cc1Cl
unit.annotation: %
result: 98.3
--
chemical.structure: Cn1c2ccccc2c2c3c(c4c5ccccc5n(CCC#N)c4c21)CNC3=O
unit.annotation: %
result: 137

query: Entry COc1ccc(Cl)cc1NC(=O)Nc1cc(C)nc2ccccc12 has what residual activity?
result: 95.7

query: What value of residual activity has been reported for the following molecule? c1ccc2c(-c3ccncc3)c[nH]c2c1
result: 108

query: Reported residual activity for N#Cc1c[nH]c2c[nH]/c(=N\Cc3cccnc3)cc2/c1=N\c1ccc(F)c(Cl)c1 : what is it?
result: 103

query: Fill blank: measured residual activity of the molecule Fc1ccc(-c2nc3n(c2-c2ccncc2)CCS3)cc1 is ____.
result: 97.9

====

target: CAMKK2 (human) (UniProt Q96RR4); experiment: radiometric filter-binding kinase assay, Kinase HotSpot; details: compound 0.5 µM; ATP 10 µM
Sequence (Q96RR4 whole entry, looked up): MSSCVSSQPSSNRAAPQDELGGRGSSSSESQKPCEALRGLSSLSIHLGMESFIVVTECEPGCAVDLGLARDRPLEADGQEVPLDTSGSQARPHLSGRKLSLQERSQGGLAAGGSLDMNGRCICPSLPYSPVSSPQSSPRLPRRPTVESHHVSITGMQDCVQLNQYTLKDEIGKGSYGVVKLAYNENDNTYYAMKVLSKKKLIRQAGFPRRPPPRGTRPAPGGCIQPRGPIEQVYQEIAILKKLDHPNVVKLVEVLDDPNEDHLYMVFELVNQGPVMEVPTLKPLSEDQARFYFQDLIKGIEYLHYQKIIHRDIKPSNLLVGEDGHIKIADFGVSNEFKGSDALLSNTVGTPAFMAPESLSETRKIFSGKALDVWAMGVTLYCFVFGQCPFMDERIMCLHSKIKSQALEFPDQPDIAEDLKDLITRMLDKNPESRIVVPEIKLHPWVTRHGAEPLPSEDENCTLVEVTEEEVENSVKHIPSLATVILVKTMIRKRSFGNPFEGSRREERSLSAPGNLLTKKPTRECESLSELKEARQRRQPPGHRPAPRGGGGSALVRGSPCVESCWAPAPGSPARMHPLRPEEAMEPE
Each entry below lists one item and its recorded residual activity value.
Please respond with the number in % and leave the unit unwritten.

Some entries whose results are on file:
chemical.structure: NC(=O)c1cccc(-c2cc(Nc3ccc(OC(F)(F)F)cc3)ncn2)c1
study.target: CAMKK2 (human) (UniProt Q96RR4)
unit.annotation: %
residual activity: 99.1

chemical.structure: COc1ccc2c(c1)/C(=C/c1cnc[nH]1)C(O)=N2
study.target: CAMKK2 (human) (UniProt Q96RR4)
unit.annotation: %
residual activity: 89.5

query: Please give the measured residual activity for this molecule: CN(C)c1ccc(/C=C2\C(=O)Nc3ccccc32)cc1
result: 100

====

biological target: SRPK1 (human) (UniProt Q96SB4); experiment: radiometric filter-binding kinase assay, Kinase HotSpot; conditions: compound 0.5 µM; ATP 10 µM
Sequence (Q96SB4 whole entry, looked up): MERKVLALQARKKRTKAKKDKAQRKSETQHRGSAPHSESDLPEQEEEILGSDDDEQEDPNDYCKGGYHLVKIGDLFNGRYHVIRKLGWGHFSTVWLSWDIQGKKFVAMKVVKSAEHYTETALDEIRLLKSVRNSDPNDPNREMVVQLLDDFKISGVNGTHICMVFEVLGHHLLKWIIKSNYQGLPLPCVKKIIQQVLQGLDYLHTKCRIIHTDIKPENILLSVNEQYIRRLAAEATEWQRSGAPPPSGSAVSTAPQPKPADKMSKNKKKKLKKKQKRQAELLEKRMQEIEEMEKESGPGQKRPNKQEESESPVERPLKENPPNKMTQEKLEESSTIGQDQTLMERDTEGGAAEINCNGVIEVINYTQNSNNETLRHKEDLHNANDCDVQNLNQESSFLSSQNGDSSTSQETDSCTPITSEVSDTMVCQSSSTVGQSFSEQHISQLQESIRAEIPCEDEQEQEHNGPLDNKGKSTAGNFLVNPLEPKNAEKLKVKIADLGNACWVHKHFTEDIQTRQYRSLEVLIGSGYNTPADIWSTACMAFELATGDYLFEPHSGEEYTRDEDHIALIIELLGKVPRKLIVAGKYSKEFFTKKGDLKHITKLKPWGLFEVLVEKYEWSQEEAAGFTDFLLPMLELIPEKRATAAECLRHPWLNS
parameter.measured: residual activity (%)
Your answer is read as %, so omit the unit and give the number.

chemical.structure: CC(C)(C)c1cc(C=C(C#N)C#N)cc(Br)c1O
study.target: SRPK1 (human) (UniProt Q96SB4)
parameter.measured: residual activity
unit.annotation: %
result: 101
//
chemical.structure: c1ccc2c(-c3ccncc3)c[nH]c2c1
study.target: SRPK1 (human) (UniProt Q96SB4)
parameter.measured: residual activity
unit.annotation: %
result: 108
//
chemical.structure: CCCCc1c(-c2ccc(OC)cc2)[nH]c2nccnc12
study.target: SRPK1 (human) (UniProt Q96SB4)
parameter.measured: residual activity
unit.annotation: %
result: 100
//
chemical.structure: O=C1Nc2ccc(Br)cc2/C1=C\c1cc2c([nH]1)CCCC2
study.target: SRPK1 (human) (UniProt Q96SB4)
parameter.measured: residual activity
unit.annotation: %
result: 98.3
//
chemical.structure: COc1ccc(S(=O)(=O)N(CCO)c2ccccc2CN(C)C/C=C/c2ccc(Cl)cc2)cc1
study.target: SRPK1 (human) (UniProt Q96SB4)
parameter.measured: residual activity
unit.annotation: %
result: 105

query: residual activity for COc1ccc(C(=O)Nc2sc3c(c2C(N)=O)CCCC3)cc1OC ?
result: 82.6

query: // lookup residual activity for Cn1c2ccccc2c2c3c(c4c5ccccc5n(CCC#N)c4c21)CNC3=O
result: 98.3

====

molecular target: MAPK9 (human); experiment: radiometric filter-binding kinase assay, Kinase HotSpot; conditions: compound 0.5 µM; ATP 10 µM
parameter.measured: residual activity (%)
Supply the numeric figure in %, leaving out any unit text.

chemical.structure: CN(C)c1ccc(/C=C2\C(=O)Nc3ccccc32)cc1
unit.annotation: %
result: 103
//
chemical.structure: O=C1NC(=O)c2c1c1c3ccccc3[nH]c1n1cncc21
unit.annotation: %
result: 65.3
//
chemical.structure: CS(=O)(=O)CCNCc1ccc(-c2ccc3ncnc(Nc4ccc(OCc5cccc(F)c5)c(Cl)c4)c3c2)o1
unit.annotation: %
result: 98.1
//
chemical.structure: CO[C@@H]1[C@H](N(C)C(=O)c2ccccc2)C[C@H]2O[C@]1(C)n1c3ccccc3c3c4c(c5c6ccccc6n2c5c31)C(=O)NC4
unit.annotation: %
result: 82.7
//
chemical.structure: Cc1cccc(-c2nc(C(C)(C)C)[nH]c2-c2ccc3c(c2)OCO3)n1
unit.annotation: %
result: 98.2

query: Reported residual activity for O=C(c1cc2cc(O)ccc2[nH]1)c1cc2cc(O)ccc2[nH]1 : what is it?
result: 116

query: Fill in: residual activity of CCCCc1c(-c2ccc(OC)cc2)[nH]c2nccnc12 is ___
result: 84.8

query: Fill blank: measured residual activity of the molecule O=C1c2ccccc2-c2nc3nnnn3nc21 is ____.
result: 51.9

====

target: EGFR (human) (UniProt P00533); test: radiometric filter-binding kinase assay, Kinase HotSpot; settings: compound 0.5 µM; ATP 10 µM
Sequence (P00533 whole entry, looked up): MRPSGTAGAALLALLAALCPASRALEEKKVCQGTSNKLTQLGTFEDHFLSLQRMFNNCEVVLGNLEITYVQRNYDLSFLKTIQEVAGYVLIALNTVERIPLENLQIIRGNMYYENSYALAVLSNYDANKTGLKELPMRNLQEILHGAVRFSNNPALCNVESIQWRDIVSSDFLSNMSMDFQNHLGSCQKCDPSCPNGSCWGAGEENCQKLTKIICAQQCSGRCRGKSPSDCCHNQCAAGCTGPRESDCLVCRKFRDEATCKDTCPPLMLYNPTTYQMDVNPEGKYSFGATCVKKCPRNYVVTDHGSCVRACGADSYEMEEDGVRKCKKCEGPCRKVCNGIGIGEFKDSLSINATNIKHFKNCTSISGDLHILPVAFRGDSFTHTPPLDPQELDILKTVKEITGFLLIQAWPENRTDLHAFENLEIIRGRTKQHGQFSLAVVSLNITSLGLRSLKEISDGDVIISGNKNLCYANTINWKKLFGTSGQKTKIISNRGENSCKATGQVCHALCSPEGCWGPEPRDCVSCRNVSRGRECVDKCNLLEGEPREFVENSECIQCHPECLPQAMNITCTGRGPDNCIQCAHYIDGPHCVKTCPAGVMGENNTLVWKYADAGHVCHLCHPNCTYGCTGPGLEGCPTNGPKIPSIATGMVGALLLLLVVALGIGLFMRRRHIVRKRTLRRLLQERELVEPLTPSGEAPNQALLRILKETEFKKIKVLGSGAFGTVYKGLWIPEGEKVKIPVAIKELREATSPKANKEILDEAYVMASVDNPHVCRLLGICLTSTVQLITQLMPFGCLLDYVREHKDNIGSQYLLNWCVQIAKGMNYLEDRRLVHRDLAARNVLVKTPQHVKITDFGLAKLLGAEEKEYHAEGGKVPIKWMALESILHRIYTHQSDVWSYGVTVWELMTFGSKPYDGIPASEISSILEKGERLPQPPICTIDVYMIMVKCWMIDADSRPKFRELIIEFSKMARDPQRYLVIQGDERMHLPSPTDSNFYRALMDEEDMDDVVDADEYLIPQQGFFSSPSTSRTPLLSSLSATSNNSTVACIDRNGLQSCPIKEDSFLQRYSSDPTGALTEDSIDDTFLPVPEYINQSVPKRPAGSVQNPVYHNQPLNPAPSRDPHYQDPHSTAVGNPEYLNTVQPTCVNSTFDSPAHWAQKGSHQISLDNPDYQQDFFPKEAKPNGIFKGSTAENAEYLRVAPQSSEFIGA
parameter.measured: residual activity (%)
Express it in %; write the number only.

chemical.structure: COc1cc2ncnc(Nc3ccc(Oc4ccccc4)cc3)c2cc1OC
parameter.measured: residual activity
result: 31.6

Let us examine a further case.
query: Field: residual activity (EGFR (human) (UniProt P00533)). Entry: Cc1cccc(-c2nc(C(C)(C)C)[nH]c2-c2ccc3c(c2)OCO3)n1
result: 96.4

====

// values below are reported residual activity
target: PRKCE (human) (UniProt Q02156); experiment: radiometric filter-binding kinase assay, Kinase HotSpot; conditions: compound 0.5 µM; ATP 10 µM
Sequence (Q02156 whole entry, looked up): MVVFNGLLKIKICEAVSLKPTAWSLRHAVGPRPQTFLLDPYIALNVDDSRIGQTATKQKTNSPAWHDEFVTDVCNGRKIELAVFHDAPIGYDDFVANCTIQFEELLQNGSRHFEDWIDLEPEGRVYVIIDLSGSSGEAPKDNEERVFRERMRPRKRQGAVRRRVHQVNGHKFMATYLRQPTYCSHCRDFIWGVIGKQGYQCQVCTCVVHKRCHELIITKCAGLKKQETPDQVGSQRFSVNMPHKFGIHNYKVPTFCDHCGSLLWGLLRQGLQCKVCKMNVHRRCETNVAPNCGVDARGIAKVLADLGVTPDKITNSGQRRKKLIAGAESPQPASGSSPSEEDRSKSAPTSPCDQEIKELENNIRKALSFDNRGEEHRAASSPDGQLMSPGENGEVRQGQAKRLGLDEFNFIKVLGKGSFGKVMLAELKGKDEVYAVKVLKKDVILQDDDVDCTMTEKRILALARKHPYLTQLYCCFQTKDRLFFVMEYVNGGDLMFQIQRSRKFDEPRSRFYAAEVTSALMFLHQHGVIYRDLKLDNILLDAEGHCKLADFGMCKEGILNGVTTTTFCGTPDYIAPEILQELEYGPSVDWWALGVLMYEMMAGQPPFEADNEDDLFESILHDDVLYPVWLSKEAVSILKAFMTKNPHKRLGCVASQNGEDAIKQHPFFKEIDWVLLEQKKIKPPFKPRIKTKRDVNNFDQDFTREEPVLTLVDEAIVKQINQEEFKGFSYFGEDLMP
All answers are understood in %, so give the number only.

Worked examples follow.
chemical.structure: Cc1cncc2cccc(S(=O)(=O)N3CCCN(C(=O)CN)C[C@H]3C)c12
residual activity, %: 52.4
--
chemical.structure: O=C(c1cc2cc(O)ccc2[nH]1)c1cc2cc(O)ccc2[nH]1
residual activity, %: 119
--
chemical.structure: O=C1NC(=O)c2c1c1c3ccccc3[nH]c1n1cncc21
residual activity, %: 84.9
--
chemical.structure: C[C@@H]1CCN(C(=O)CC#N)C[C@@H]1N(C)c1ncnc2[nH]ccc12
residual activity, %: 98.5
--
chemical.structure: Cc1nc(-c2ccccc2)c(-c2ccncc2)o1
residual activity, %: 103
--
chemical.structure: COc1ccc2c(c1)/C(=C/c1cnc[nH]1)C(O)=N2
residual activity, %: 99
--
chemical.structure: COc1ccc(S(=O)(=O)N(CCO)c2ccccc2CN(C)C/C=C/c2ccc(Cl)cc2)cc1
residual activity, %: 97.2
--
chemical.structure: N#Cc1c[nH]c2c[nH]/c(=N\Cc3cccnc3)cc2/c1=N\c1ccc(F)c(Cl)c1
residual activity, %: 101
--
chemical.structure: COc1cc2ncnc(Nc3ccc(OCc4ccccc4)cc3)c2cc1OC
residual activity, %: 99.4
--
chemical.structure: COc1ccc(C(=O)Nc2sc3c(c2C(N)=O)CCCC3)cc1OC
residual activity, %: 95

Query molecule follows.
query: Requested field: residual activity. Item: Cc1cccc(-c2nc(C(C)(C)C)[nH]c2-c2ccc3c(c2)OCO3)n1
result: 97.9
